B1: SMOC2 (parent)
chain: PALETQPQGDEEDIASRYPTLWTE

Variants of: B1
Assay: protein stability index of a GFP-peptide fusion (GPS, HEK-293T) (PSI 1-6); higher = more stable;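 note: lentivirally expressed fusions sorted by FACS into six bins by GFP to DsRed ratio, PSI derived from sequencing read proportions per bin multiplied by bin number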
Conditions: c terminus: a fixed tail appended
Let's look at some variants and their measured protein stability index.
observed property: protein stability index

INSERT INTO measurements (mutation_string, recorded_value) VALUES
  ('W22M', 5.49),
  ('A15G', 4.63),
  ('Q8F', 4.48),
  ('E4L', 4.22),
  ('A15E', 4.29),
  ('T5N', 4.54),
  ('E12D', 4.41),
  ('R17S', 4.26),
  ('Q6R', 4.34),
  ('W22D', 5.62),
  ('L3P', 5.08),
  ('W22A', 5.45),
  ('P1M', 4.25),
  ('T20A', 4.31),
  ('T5G', 4.3),
  ('T23S', 5.28),
  ('D10H', 3.56),
  ('Q8S', 4.74),
  ('E12K', 3.56),
  ('P1I', 4.09),
  ('D13G', 3.85),
  ('L3Q', 4.97),
  ('D10Y', 3.51),
  ('I14N', 5.01),
  ('E4H', 3.77),
  ('E11I', 3.36),
  ('T23R', 5.13),
  ('T23K', 4.58),
  ('A2V', 4.67),
  ('Q8V', 5.17),
  ('E4G', 4.07),
  ('D10L', 4.33),
  ('P1H', 4.32),
  ('Y18K', 3.34),
  ('D10Q', 4.41),
  ('L3H', 4.36),
  ('W22N', 5.8),
  ('I14Q', 4.4),
  ('A15F', 4.34),
  ('D13Q', 4.21),
  ('I14V', 4.19),
  ('T20G', 4.41),
  ('T5Q', 4.72),
  ('Y18P', 4.14),
  ('P1Y', 3.1),
  ('A15R', 4.53);
